tgt: Serine/threonine-protein kinase PAK 6 (Homo sapiens) (UniProt Q9NQU5)
Sequence (Q9NQU5 whole entry, looked up): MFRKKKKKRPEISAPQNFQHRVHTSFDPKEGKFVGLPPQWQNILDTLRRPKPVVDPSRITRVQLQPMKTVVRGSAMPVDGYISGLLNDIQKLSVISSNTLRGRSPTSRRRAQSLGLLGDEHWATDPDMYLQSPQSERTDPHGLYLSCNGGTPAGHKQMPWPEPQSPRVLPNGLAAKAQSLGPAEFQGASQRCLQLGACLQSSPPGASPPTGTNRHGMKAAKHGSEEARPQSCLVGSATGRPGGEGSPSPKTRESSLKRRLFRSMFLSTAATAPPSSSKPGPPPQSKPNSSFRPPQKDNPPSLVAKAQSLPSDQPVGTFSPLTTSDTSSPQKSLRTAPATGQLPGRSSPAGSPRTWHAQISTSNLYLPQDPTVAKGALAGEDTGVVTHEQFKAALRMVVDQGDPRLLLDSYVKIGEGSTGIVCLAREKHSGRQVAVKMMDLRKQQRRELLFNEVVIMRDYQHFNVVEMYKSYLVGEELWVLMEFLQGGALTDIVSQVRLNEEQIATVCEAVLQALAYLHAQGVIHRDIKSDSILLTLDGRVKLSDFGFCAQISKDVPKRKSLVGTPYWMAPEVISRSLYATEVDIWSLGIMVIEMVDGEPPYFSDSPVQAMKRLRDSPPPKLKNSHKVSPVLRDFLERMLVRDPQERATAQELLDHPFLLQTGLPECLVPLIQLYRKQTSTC
experimental-parameters: at 0.1 µM
Reported inhibition values for the following compounds.

{"chemical-structure": "O=C1NC(=O)C(N2CCc3ccccc32)=C1c1ccc(Cl)cc1", "inhibition, %": 2.3}
{"chemical-structure": "COc1cc(C)c(NC(=O)CN(C)C)cc1Nc1nc(Nc2cccc(F)c2C(N)=O)c2cc[nH]c2n1", "inhibition, %": 5.11}
{"chemical-structure": "Nc1nc(-c2ccc3c(c2)C(=Cc2cc(Br)c(O)c(Br)c2)C(=O)N3)cs1", "inhibition, %": -5.26}

----------
tgt: Glycogen synthase kinase-3 beta (Homo sapiens) (UniProt P49841)
Sequence (P49841 whole entry, looked up): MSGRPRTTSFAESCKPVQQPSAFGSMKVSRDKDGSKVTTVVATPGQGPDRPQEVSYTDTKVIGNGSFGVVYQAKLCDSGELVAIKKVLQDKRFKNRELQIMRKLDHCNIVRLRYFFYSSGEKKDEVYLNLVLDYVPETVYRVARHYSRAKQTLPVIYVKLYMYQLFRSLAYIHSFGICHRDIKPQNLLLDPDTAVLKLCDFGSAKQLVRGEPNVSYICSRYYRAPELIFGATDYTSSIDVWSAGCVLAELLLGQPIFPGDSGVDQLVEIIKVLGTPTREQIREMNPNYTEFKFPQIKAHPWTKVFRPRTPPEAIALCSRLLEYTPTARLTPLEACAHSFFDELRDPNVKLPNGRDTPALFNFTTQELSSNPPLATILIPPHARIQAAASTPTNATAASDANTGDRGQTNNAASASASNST
experimental-parameters: at 1 µM
Reported inhibition values for the following molecules.

{"molecule": "CCCN1CCC=C(c2ccc(Nc3nc(Nc4ccccc4C(N)=O)c4cc[nH]c4n3)c(C)c2)C1", "inhibition (%)": 17.1}
{"molecule": "COc1ccc2cc(-c3c(-c4ccncc4)nc(-c4ccc([S+](C)[O-])cc4)n3C)ccc2c1 (centres undefined)", "inhibition (%)": 9.29}
{"molecule": "CS(=O)(=O)CCNCc1ccc(-c2ccc3ncnc(Nc4ccc(OCc5cccc(F)c5)c(C(F)(F)F)c4)c3c2)o1", "inhibition (%)": -0.18}
{"molecule": "COc1cc2ncn(-c3cc(OCc4ccccc4Cl)c(C(N)=O)s3)c2cc1OC", "inhibition (%)": 9.93}
{"molecule": "CS(=O)(=O)CCN(CC#N)Cc1ccc(-c2ccc3ncnc(Nc4ccc(OCc5cccc(F)c5)c(Cl)c4)c3c2)o1", "inhibition (%)": -0.38}
{"molecule": "COc1ccc(-c2coc3ncnc(N)c23)cc1", "inhibition (%)": 2.62}
{"molecule": "COC(=O)Nc1nc2cc(Oc3ccc(NC(=O)Nc4cccc(C(=O)O)c4)cc3)ccc2[nH]1", "inhibition (%)": 2.13}
{"molecule": "Nc1nc(-c2ccccn2)c(-c2ccc3ncccc3n2)s1", "inhibition (%)": 8.29}
{"molecule": "[O-][S+]1CCN(Cc2ccc(-c3ccc4ncnc(Nc5ccc(OCc6ccccc6)c(F)c5)c4c3)o2)CC1", "inhibition (%)": 1.56}

----------
tgt: Cyclin-dependent kinase 4 (Homo sapiens) (UniProt P11802)
Sequence (P11802 whole entry): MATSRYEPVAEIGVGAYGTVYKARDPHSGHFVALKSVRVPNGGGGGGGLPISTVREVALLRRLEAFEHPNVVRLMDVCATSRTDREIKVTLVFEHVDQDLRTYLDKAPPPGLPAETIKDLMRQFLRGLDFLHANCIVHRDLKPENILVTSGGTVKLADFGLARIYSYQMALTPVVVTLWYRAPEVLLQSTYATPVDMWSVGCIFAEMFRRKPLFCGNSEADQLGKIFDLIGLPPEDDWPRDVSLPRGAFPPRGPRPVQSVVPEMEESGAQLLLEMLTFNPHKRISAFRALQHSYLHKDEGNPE
experimental-parameters: at 0.1 µM
Description: GSK_PKIS: CDK4/cyclinD mean inhibition at 0.1 uM [Nanosyn]
experimental-endpoint: inhibition (%)

{"chemical-structure": "CC(C)=Cc1cccc2c1/C(=N/Nc1ccc(S(N)(=O)=O)cc1)C(=O)N2", "experimental-endpoint": "inhibition", "numeric-readout": 34.3}
{"chemical-structure": "[O-][S+]1CCN(Cc2ccc(-c3ccc4ncnc(Nc5ccc(OCc6ccccc6)c(F)c5)c4c3)o2)CC1", "experimental-endpoint": "inhibition", "numeric-readout": 1.78}
{"chemical-structure": "Cc1nn(C)c2cc(N(C)c3ccnc(Nc4cccc(S(N)(=O)=O)c4)n3)ccc12", "experimental-endpoint": "inhibition", "numeric-readout": 1.72}
{"chemical-structure": "O=C1NC(=O)C(c2ccccc2Cl)=C1Nc1cccc(O)c1", "experimental-endpoint": "inhibition", "numeric-readout": 7.12}

----------
tgt: Dual specificity protein kinase CLK2 (Homo sapiens) (UniProt P49760)
Sequence (P49760 whole entry, looked up): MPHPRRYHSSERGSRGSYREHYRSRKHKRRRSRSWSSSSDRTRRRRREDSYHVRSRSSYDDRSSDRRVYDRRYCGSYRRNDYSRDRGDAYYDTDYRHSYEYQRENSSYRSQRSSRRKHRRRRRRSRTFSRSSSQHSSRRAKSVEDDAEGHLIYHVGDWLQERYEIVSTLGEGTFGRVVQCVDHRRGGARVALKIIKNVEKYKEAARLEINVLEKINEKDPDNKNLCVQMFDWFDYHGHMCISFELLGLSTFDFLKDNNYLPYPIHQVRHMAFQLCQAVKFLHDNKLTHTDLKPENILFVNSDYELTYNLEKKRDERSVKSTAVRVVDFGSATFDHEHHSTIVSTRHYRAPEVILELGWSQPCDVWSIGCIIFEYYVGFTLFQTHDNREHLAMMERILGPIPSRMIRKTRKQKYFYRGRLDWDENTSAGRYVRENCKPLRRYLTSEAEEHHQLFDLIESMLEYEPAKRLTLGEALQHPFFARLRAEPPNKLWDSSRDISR
experimental-parameters: at 0.1 µM
Description: GSK_PKIS: CLK2 mean inhibition at 0.1 uM [Nanosyn]
Reported inhibition values for the following compounds.

{"compound": "Fc1cccc(COc2ccc(Nc3ncnc4sc(-c5cccs5)cc34)cc2Cl)c1", "measurement-unit": "%", "inhibition": 1.58}
{"compound": "Cc1cc(O)cc(C)c1/C=C/c1cncc(-c2nn[nH]n2)c1", "measurement-unit": "%", "inhibition": 2.78}
{"compound": "O=C1NC(=O)C(N2CCc3ccccc32)=C1c1ccc(Cl)cc1", "measurement-unit": "%", "inhibition": -0.03}
{"compound": "CN(C)c1cc2c(Nc3ccc4nc(Cc5ccccc5)[nH]c4c3)ncnc2cn1", "measurement-unit": "%", "inhibition": 2.08}
{"compound": "COc1ccc2cc(-c3c(-c4ccncc4)nc(-c4ccc([S+](C)[O-])cc4)n3C)ccc2c1 (stereo not drawn)", "measurement-unit": "%", "inhibition": 0.22}
{"compound": "Nc1ncnc2occ(-c3ccc(NC(=O)Nc4cc(C(F)(F)F)cc(C(F)(F)F)c4)cc3)c12", "measurement-unit": "%", "inhibition": 0.31}
{"compound": "CN1CCC(C(=O)Nc2n[nH]c3nnc(-c4ccccc4)cc23)CC1", "measurement-unit": "%", "inhibition": 1.34}
{"compound": "NCc1ccc(-c2nc(-c3ccc(Cl)c(O)c3)c(-c3ccncc3)[nH]2)cc1", "measurement-unit": "%", "inhibition": 2.01}

----------
Reported inhibition values for the following compounds.
tgt: cGMP-dependent protein kinase 2 (Homo sapiens)
Sequence (whole entry): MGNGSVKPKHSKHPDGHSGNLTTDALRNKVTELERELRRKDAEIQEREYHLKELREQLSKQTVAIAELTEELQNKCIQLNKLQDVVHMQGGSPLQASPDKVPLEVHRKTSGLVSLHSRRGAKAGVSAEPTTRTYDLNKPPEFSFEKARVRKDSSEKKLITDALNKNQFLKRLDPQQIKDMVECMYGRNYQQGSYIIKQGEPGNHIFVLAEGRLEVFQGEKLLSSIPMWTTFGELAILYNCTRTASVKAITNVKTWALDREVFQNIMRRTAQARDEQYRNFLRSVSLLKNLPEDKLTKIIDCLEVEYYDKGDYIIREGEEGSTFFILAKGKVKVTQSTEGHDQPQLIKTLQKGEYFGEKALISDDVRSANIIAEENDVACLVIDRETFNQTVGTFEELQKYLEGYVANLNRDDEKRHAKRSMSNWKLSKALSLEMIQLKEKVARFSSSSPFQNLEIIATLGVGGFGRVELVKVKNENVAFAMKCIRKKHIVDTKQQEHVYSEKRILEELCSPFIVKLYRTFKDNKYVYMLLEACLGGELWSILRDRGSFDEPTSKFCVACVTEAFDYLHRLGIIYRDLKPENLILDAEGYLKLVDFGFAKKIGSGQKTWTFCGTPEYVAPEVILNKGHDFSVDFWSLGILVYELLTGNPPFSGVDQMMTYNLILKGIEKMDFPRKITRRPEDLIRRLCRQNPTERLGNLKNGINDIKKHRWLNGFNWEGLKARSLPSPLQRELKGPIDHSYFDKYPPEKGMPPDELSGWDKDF
experimental-parameters: at 0.1 µM

{"compound": "CC1=C(C(=O)Nc2ccc3[nH]ncc3c2)C(c2ccc(F)cc2)NC(=O)N1 (centres undefined)", "measurement-unit": "%", "inhibition": 1.73}
{"compound": "Cc1cc(O)cc(C)c1/C=C/c1cncc(-c2nn[nH]n2)c1", "measurement-unit": "%", "inhibition": 2.47}
{"compound": "CCn1c(-c2nonc2N)nc2cnc(Oc3cccc(NC(=O)c4ccc(OCCN5CCOCC5)cc4)c3)cc21", "measurement-unit": "%", "inhibition": 27.3}
{"compound": "COc1ccc(-c2ccncc2)cc1C(N)=O", "measurement-unit": "%", "inhibition": 2.97}

----------
tgt: Tyrosine-protein kinase receptor UFO (Homo sapiens)
experimental-parameters: at 0.1 µM

{"compound": "c1cnn2ncc(-c3ccnc(Nc4ccc5c(c4)OCCO5)n3)c2c1", "inhibition, %": -2.3}
{"compound": "COc1ccc(-c2coc3ncnc(N)c23)cc1", "inhibition, %": -5.99}
{"compound": "COC(=O)Nc1nc2cc(Oc3cccc(NC(=O)Nc4cc(C(F)(F)F)ccc4F)c3)ccc2[nH]1", "inhibition, %": -0.41}
{"compound": "NS(=O)(=O)c1ccc(N/N=C2\\C(=O)Nc3ccc(C(=O)NCCc4c[nH]cn4)cc32)cc1", "inhibition, %": -2.52}
{"compound": "CCn1c(-c2nonc2N)nc2cncc(C(=O)N3CCNCC3)c21", "inhibition, %": -7.98}
{"compound": "CCCN1CCC=C(c2ccc(Nc3nc(Nc4ccccc4C(N)=O)c4cc[nH]c4n3)c(C)c2)C1", "inhibition, %": 8.88}
{"compound": "CS(=O)(=O)CCNCc1ccc(-c2ccc3ncnc(Nc4ccc(OCc5ccccc5)c(Cl)c4)c3c2)o1", "inhibition, %": 0.79}
{"compound": "Cc1ccc(C(=O)NC2CCCCC2)cc1-c1ccc(C(=O)NCC2CC2)cc1", "inhibition, %": 0.41}
{"compound": "COc1cc(C)c(NC(=O)CN(C)C)cc1Nc1nc(Nc2cccc(F)c2C(N)=O)c2cc[nH]c2n1", "inhibition, %": 17.6}
{"compound": "COc1cc(C=NNc2ncnc3c2cnn3-c2ccccc2)ccc1O", "inhibition, %": -1.48}
{"compound": "COc1cc2ncn(-c3cc(O[C@@H](C)c4ccccc4Cl)c(C(N)=O)s3)c2cc1OC", "inhibition, %": -8.48}
{"compound": "CS(=O)(=O)CCN(CC#N)Cc1ccc(-c2ccc3ncnc(Nc4ccc(OCc5cccc(F)c5)c(Cl)c4)c3c2)o1", "inhibition, %": -6.1}
{"compound": "Cc1nnc(-c2ccc(C)c(-c3ccc(C(=O)Nc4cccc(C#N)c4)cc3)c2)o1", "inhibition, %": -4.6}
{"compound": "CCc1cccc(NC(=O)Nc2ccc(Oc3ccc4nc(NC(=O)OC)[nH]c4c3)cc2)c1", "inhibition, %": 9.63}
{"compound": "CS(=O)(=O)CCNCc1ccc(-c2ccc3ncnc(Nc4ccc(OCc5cccc(F)c5)c(C(F)(F)F)c4)c3c2)o1", "inhibition, %": -5.05}
{"compound": "COc1ccc(-c2nn3ncccc3c2-c2ccnc(Nc3ccc(Cl)c(C(F)(F)F)c3)n2)cc1", "inhibition, %": -2.69}
{"compound": "CCn1c(-c2nonc2N)nc2c(N3CCCC3)nccc21", "inhibition, %": 0.14}
{"compound": "COc1cc2c(cc1Nc1nc(N3CCc4ccccc43)c3cc[nH]c3n1)N(C(=O)CN(C)C)CC2", "inhibition, %": 3.85}
{"compound": "Cc1ccc(NC(=O)c2ccnc(N3CCCC3)c2)cc1-c1ccc(C(=O)NCC2CC2)cc1", "inhibition, %": -7.11}
{"compound": "CN1CCC(C(=O)Nc2n[nH]c3nnc(-c4ccccc4)cc23)CC1", "inhibition, %": -5.95}
{"compound": "COc1ccccc1Nc1ncc(-c2ccccc2)o1", "inhibition, %": -6.45}
{"compound": "Nc1nc(-c2ccccn2)c(-c2ccc3ncccc3n2)s1", "inhibition, %": -2.51}
{"compound": "CCn1c(-c2nonc2N)nc2c(C#CC(C)(C)O)nc(OC[C@@H](N)c3ccccc3)cc21", "inhibition, %": 2.41}
{"compound": "Cc1cccc(-c2n[nH]cc2-c2ccc3ncccc3n2)n1", "inhibition, %": -0.81}
{"compound": "O=C1NC(=O)C(c2ccc(Cl)cc2)=C1Nc1ccc(Cl)c(C(=O)O)c1", "inhibition, %": 2.69}
{"compound": "CS(=O)(=O)CCNCc1nc(-c2ccc3ncnc(Nc4ccc(F)c(Cl)c4)c3c2)cs1", "inhibition, %": 0.38}
{"compound": "CCn1c(-c2nonc2N)nc2ccncc21", "inhibition, %": -1.17}
{"compound": "COc1ccc2cc(-c3c(-c4ccncc4)nc(-c4ccc([S+](C)[O-])cc4)n3C)ccc2c1 (stereo unspecified)", "inhibition, %": -6.33}
{"compound": "CS(=O)(=O)Nc1ccc(N/C=C2\\C(=O)Nc3ccccc32)cc1", "inhibition, %": 2.95}
{"compound": "Fc1cccc(COc2ccc(Nc3ncnc4sc(-c5cccs5)cc34)cc2Cl)c1", "inhibition, %": -4.04}
{"compound": "CCn1c(-c2nonc2N)nc2c(C#CC(C)(C)O)nc(CN3CCCC3)cc21", "inhibition, %": 1.88}
